The measured values listed here are drawn from the supplement of paper PMC10724198.

Tested on: Saccharomyces cerevisiae
Assay: protein stability index of tFT-peptide fusion (C-terminal peptide) (PSI (0-1 scale)); higher = more stable (slower turnover)
Details: genetic background: wild type; temperature: 30 C
Record form. Attribute: protein stability index. Fill in for each entry.
Response field accepts a number only; no unit should be typed.

Q: // query protein stability index value for entry WKLRAKYGIRKD [MGR2 C-terminal 12 aa]
A: 0.684

Q: Reported protein stability index for VELYENQSHMQN [CDC9 C-terminal 12 aa] : what is it?
A: 0.678

Q: Given DEDEFENQRQQF [YIL055C C-terminal 12 aa] , state its recorded protein stability index.
A: 0.709

Q: Would you kindly share the measured protein stability index for QIDKLLTVLDSL [RTP1 C-terminal 12 aa] ?
A: 0.691

Q: Requested read-out: protein stability index. Entry: KEFQNSDIADLY [SGV1 C-terminal 12 aa]
A: 0.686

Q: Form field: reported protein stability index of TNVQANSYRKVP [SDP1 C-terminal 12 aa]
A: 0.522
